System: IGROV1 ovarian
assay.method.text: NCI-60 one-dose screen, 48 h
test.settings: 10 µM unless noted
Method: Growth inhibition of the IGROV1 human tumor cell line is measured as a screen for anti-cancer activity. Cells are grown in 96 well plates and exposed to the test compound for 48 hours. Compounds are tested at a single concentration, which is 10^-5 M for most compounds. The reported endpoint is percent growth (GI% or GIPRCNT), where numbers from 0 - 100% represent growth inhibition, and numbers from -100% - 0 represent cell death. For example, a value of 40 represents 60% growth inhibition. […]
This is part of a sample that, as a whole, favours compounds with a hit. Of some 83,000 tested, about 20% had one in any assay. Active and inactive are the calls of the source. How the source made its calls: active means growth percent below 10; inactive means the rest.
Outcome codes: active, inactive

[[record]]
smiles_input = "O=C(Nc1cccc(Cl)c1)Nc1cccc(Cn2c(=O)[nH]c3ccc(Oc4ncccn4)cc3c2=O)c1"
target_entity = "IGROV1 ovarian"
category_label = "inactive"

[[record]]
smiles_input = "CN(C)CC(C)(C)C(=O)/C=C/c1ccccc1"
target_entity = "IGROV1 ovarian"
category_label = "active"

[[record]]
smiles_input = "COCCNC(=O)Nc1ccc2nc(-c3cccs3)c(-c3cccs3)nc2c1"
target_entity = "IGROV1 ovarian"
category_label = "inactive"

[[record]]
smiles_input = "COc1ccc(/C=N/NC(=O)c2ccc(-n3cc(-c4ccccc4)nn3)cc2)cc1OC"
target_entity = "IGROV1 ovarian"
category_label = "inactive"

[[record]]
smiles_input = "Cn1cc(-c2csc(-c3cn(C(=O)OC(C)(C)C)c4ccc(Br)cc34)n2)c2ccnc(Cl)c21"
target_entity = "IGROV1 ovarian"
category_label = "inactive"

[[record]]
smiles_input = "O=C(Nc1ccc(Oc2cccc(Cl)c2)c(Cl)c1)c1cccnc1"
target_entity = "IGROV1 ovarian"
category_label = "inactive"

[[record]]
smiles_input = "c1cnc2c(-c3nc4ccc5[nH]ncc5c4c4c3CCCC4)c[nH]c2c1"
target_entity = "IGROV1 ovarian"
category_label = "inactive"

[[record]]
smiles_input = "COc1cccc(/C=C2\\COc3ccc(O)c(O)c3C2=O)c1"
target_entity = "IGROV1 ovarian"
category_label = "active"

[[record]]
smiles_input = "CC(=O)Oc1ccc(C)cc1C"
target_entity = "IGROV1 ovarian"
category_label = "inactive"

[[record]]
smiles_input = "COc1cc(-c2csc(NC(=O)c3ccc(N4CCOCC4)c(C(F)(F)F)c3)n2)cc(OC)c1OC"
target_entity = "IGROV1 ovarian"
category_label = "inactive"


* * *

System: DU-145 prostate
assay.method.text: NCI-60 one-dose screen, 48 h (100 = growth as untreated, 0 = no growth, -100 = all killed)
test.settings: 10 µM unless noted
Compounds without any hit were thinned out: in the full panel of roughly 83,000, 20% have a hit. Activity calls are given as the source filed them. The calls were made as follows: active = growth percent below 10; inactive = the rest.
A collection of compounds and their measured growth
recorded.metric: growth

[[record]]
compound = "COc1ccc(Nc2nc(-c3cc(O)c(C)c(C)c3O)cs2)cc1"
recorded_metric = "growth"
reported_result = "87.3% (inactive)"

[[record]]
compound = "COC(=O)C1Cc2ccccc2CN1C(=O)c1ccc2c(c1)Cc1ccccc1-2 (centres undefined)"
recorded_metric = "growth"
reported_result = "59.8% [50 µM] (inactive)"

[[record]]
compound = "Nc1[nH]n2cc(-c3ccccc3)nc2c1N=Nc1ccc(S(N)(=O)=O)cc1"
recorded_metric = "growth"
reported_result = "42.9% (inactive)"

[[record]]
compound = "CC/C=C\\C[C@H](O)C/C=C1/C(=O)C=C[C@@H]1C/C=C\\CCCC(=O)N(C)C"
recorded_metric = "growth"
reported_result = "16.4% (inactive)"

[[record]]
compound = "CCOc1ccc(NC(=O)CSc2oc(-c3ccccc3)nc2S(=O)(=O)c2ccc(C)cc2)cc1"
recorded_metric = "growth"
reported_result = "67.3% (inactive)"

[[record]]
compound = "CSc1nc2ccccc2cc1/C=C1/C=C(c2ccccc2)NC1=O"
recorded_metric = "growth"
reported_result = "93.2% (inactive)"

[[record]]
compound = "CN1CCN(c2cc(Nc3cc(C4CC4)[nH]n3)nc(Nc3ccc(CC(=O)NCc4cccc(F)c4)cc3)n2)CC1"
recorded_metric = "growth"
reported_result = "41.7% (inactive)"

[[record]]
compound = "O=S(=O)(Nc1ccc(Cl)c(C(F)(F)F)c1)c1ccc(-c2cnc(C3CC3)o2)cc1"
recorded_metric = "growth"
reported_result = "15.5% (inactive)"

[[record]]
compound = "CCN1CCN(C(=O)[C@]23CCC(C)(C)C[C@@H]2C2=CC[C@@H]4[C@@]5(C)CCC(=O)C(C)(C)[C@@H]5CC[C@@]4(C)[C@]2(C)CC3)CC1"
recorded_metric = "growth"
reported_result = "76.6% (inactive)"

[[record]]
compound = "O=C(c1ccccc1)c1ccc(C2CCCCC2)cc1"
recorded_metric = "growth"
reported_result = "106% (inactive)"

[[record]]
compound = "N#CC1=C(c2ccccc2)Nc2c(c(-c3ccc(Cl)cc3)nn2-c2ccccc2)C12C(=O)Nc1ccc(Cl)cc12 (centres undefined)"
recorded_metric = "growth"
reported_result = "86.1% (inactive)"

[[record]]
compound = "NC(=O)c1c(NC(=O)c2ccc3ccccc3c2)sc2c1CCC(=O)C2"
recorded_metric = "growth"
reported_result = "94.4% (inactive)"

[[record]]
compound = "COc1ccc(-c2nn(-c3cccc(Cl)c3)cc2-c2cc(-c3ccc(Br)cc3)nc(N)n2)cc1"
recorded_metric = "growth"
reported_result = "107% (inactive)"

[[record]]
compound = "O=C(C[C@]1(O)C(=O)Nc2ccccc21)c1cccc(C(F)(F)F)c1"
recorded_metric = "growth"
reported_result = "99.2% (inactive)"

[[record]]
compound = "C#COc1cccc(Nc2c(C#N)cnc3ncc(NC(=O)CCl)cc23)c1"
recorded_metric = "growth"
reported_result = "33.2% [6.25 µM] (inactive)"

[[record]]
compound = "O=C(Nn1c2c(sc1=NC1CC1)C(=O)c1ccccc1C2=O)c1cc2ccc1CCc1ccc(cc1)CC2"
recorded_metric = "growth"
reported_result = "33.2% (inactive)"

[[record]]
compound = "Cc1cc(C)c2c(c1)N(C)c1ncnc(-n3cnc4cc(C)ccc43)c1CC2C (centres undefined)"
recorded_metric = "growth"
reported_result = "14.2% (inactive)"

[[record]]
compound = "C#CCOc1cccc(Nc2ncnc3ccc(NC(=O)C=C)cc23)c1"
recorded_metric = "growth"
reported_result = "24.1% (inactive)"

[[record]]
compound = "N#Cc1nc(-c2ccc(F)cc2)oc1S(=O)(=O)N1CCOCC1"
recorded_metric = "growth"
reported_result = "93.8% (inactive)"


* * *

Test system: LOX IMVI melanoma
assay.method.text: NCI-60 one-dose screen, 48 h (100 = growth as untreated, 0 = no growth, -100 = all killed)
test.settings: 10 µM unless noted
About 83,000 compounds went through this panel and 20% of them were active in at least one assay; those are over-represented in the sample as a whole.
recorded.metric: growth (%)

[[record]]
smiles_input = "COC12C=C/C(=C(/C(=O)OCc3ccncn3)C(=O)CCCCCCCCC3(OC)C=C/C(=C(/C(=O)OCc4ccncn4)C(=O)CCCCCCCC1)O3)O2"
reported_result = -54.8

[[record]]
smiles_input = "CCOC(=O)Cc1cnc(N/N=C(\\C)c2cc3ccccc3o2)s1"
reported_result = 86

[[record]]
smiles_input = "O=C(CN1C(=O)S/C(=C\\C(Cl)=C\\c2ccccc2)C1=O)NCCc1ccc(O)cc1"
reported_result = -51.5

[[record]]
smiles_input = "CNc1nnc2n(-c3ccccc3)c(=O)c3cnn(-c4ccccc4)c3n12"
reported_result = 82.6

[[record]]
smiles_input = "CCCC/C=C/[C@@H]1C[C@H]1CCO"
reported_result = 98.2

[[record]]
smiles_input = "C=C(C)[C@@H]1CC[C@]2(C(=O)N3CCOCC3)CC[C@]3(C)[C@H](CC[C@@H]4[C@@]5(C)C/C(=C/c6ccncc6)C(=O)C(C)(C)[C@@H]5CC[C@]43C)[C@@H]12"
reported_result = 60

[[record]]
smiles_input = "COc1cc2oc(-c3cccc(NC(=O)c4ccccc4)c3)cc(=O)c2c(OC)c1OC"
reported_result = 61.7

[[record]]
smiles_input = "N#Cc1c(-c2ccccc2)cc(-c2ccccc2)n(CCCC(=O)Nc2ccccc2N)c1=O"
reported_result = 48

[[record]]
smiles_input = "CCn1c(SCC(=O)N/N=C(\\C)c2ccc(Cl)cc2)nc2c1c(=O)n(C)c(=O)n2C"
reported_result = 94.6


* * *

Measured growth by item
Test system: UO-31 renal
assay.method.text: NCI-60 one-dose screen, 48 h (100 = growth as untreated, 0 = no growth, -100 = all killed)
test.settings: 10 µM unless noted
The panel holds about 83,000 compounds, 20% with a hit somewhere; the sample as a whole holds those more often.
recorded.metric: growth (%)

[[record]]
smiles_input = "CC(=O)n1nc(C(=O)OC(C)(C)c2ccccc2)c2ccccc21"
target_entity = "UO-31 renal"
recorded_metric = "growth"
output_unit = "%"
reported_result = 93.2

[[record]]
smiles_input = "Cn1cc(-c2ccc3nc(-c4ccc(CC(=O)ONc5cc(C(C)(C)C)on5)cc4)cnc3c2)cn1"
target_entity = "UO-31 renal"
recorded_metric = "growth"
output_unit = "%"
reported_result = 20.9

[[record]]
smiles_input = "N=C(N)c1ccc(-c2ccc(-c3ccc(Cl)cc3Cl)s2)cc1"
target_entity = "UO-31 renal"
recorded_metric = "growth"
output_unit = "%"
reported_result = 21.8

[[record]]
smiles_input = "COc1ccc(OC)c(Nc2nnc(-c3ccc(O)c(OC)c3)o2)c1"
target_entity = "UO-31 renal"
recorded_metric = "growth"
output_unit = "%"
reported_result = 20.3

[[record]]
smiles_input = "Cn1ccnc1C(=O)/C=C/c1ccc(CC(=O)Nc2cc(C(F)(F)F)cc(C(F)(F)F)c2)cc1"
target_entity = "UO-31 renal"
recorded_metric = "growth"
output_unit = "%"
reported_result = 63.2

[[record]]
smiles_input = "CN(C)CCNC(=O)c1cc2c3cc(Cl)ccc3[nH]c2c2ncccc12"
target_entity = "UO-31 renal"
recorded_metric = "growth"
output_unit = "%"
reported_result = 6.68

[[record]]
smiles_input = "N#Cc1ccc2c(c1)C(=O)c1c-2n(CCCN)c(=O)c2cc([N+](=O)[O-])ccc12"
target_entity = "UO-31 renal"
recorded_metric = "growth"
output_unit = "%"
reported_result = -100

[[record]]
smiles_input = "Cc1cc(=O)n(C(=O)Nc2ccccc2Cl)c2cc(O)ccc12"
target_entity = "UO-31 renal"
recorded_metric = "growth"
output_unit = "%"
reported_result = 76.9

[[record]]
smiles_input = "CC(C)=CC(=O)OCC(=O)O[C@@H]1C[C@]2(C(C)C)O[C@@]1(C)[C@@H]1CC[C@@H](C)[C@H]1[C@@H]2OC(=O)/C=C/c1ccccc1"
target_entity = "UO-31 renal"
recorded_metric = "growth"
output_unit = "%"
reported_result = -64.7

